# System: isolated guinea pig hearts
# TEST_NAME: Langendorff guinea pig heart: perfusion pressure and left ventricular pressure after LTC4
# CONDITION_SET: LTC4 (10^−8M) + test sub. (10^−8M)
READOUT_KIND: Perfusion pressure relative to control without LTC4

O=C(O)c1ccc(OCCCc2ccc(OCCCCOc3ccccc3)cc2)c(C(=O)NC2CCCC(C(=O)O)C2)c1 (racemic) : 125%
O=C(O)c1ccc(OCCCc2ccc(OCCCC3CCCCC3)cc2)c(C(=O)NC2CCCC(C(=O)O)C2)c1 (stereo not shown) : 133%
CC(C)Oc1ccc(COc2ccc(CCCOc3ccc(C(=O)O)cc3C(=O)NC3CCCC(C(=O)O)C3)cc2)cc1 (stereo not shown) : 122%

Specify Perfusion pressure relative to control without LTC4 for O=C(O)c1ccc(OCCCc2ccc(OCCCC3CCCCC3)cc2)c(C(=O)N2CCC(C(=O)O)CC2)c1 and stop. 128%

---

READOUT_KIND: melting point

Worked cases, melting point given:
O=C(O)c1ccc(OCCCc2ccc(OCc3ccc(-c4ccccc4)cc3)cc2)c(C(=O)N2CCC(C(=O)O)CC2)c1 : 193 to 194 °C
O=C(O)c1ccc(OCCCc2ccc(OCCCC3CCCCC3)cc2)c(C(=O)NC2CCCC(C(=O)O)C2)c1 (centres unmarked) : 160 °C
O=C(O)c1ccc(OCCCc2ccc(OCCCCOc3ccccc3)cc2)c(C(=O)NC2CCC(C(=O)O)CC2)c1 (centres unmarked) : 163 to 165 °C

Specify melting point for O=C(O)c1ccc(OCCCc2ccc(OCCCCOc3ccccc3)cc2)c(C(=O)NC2CCCC(C(=O)O)C2)c1 (racemic) [Example 11] and stop. 182 to 183 °C

Specify melting point for O=C(O)CC1CCN(C(=O)c2cc(C(=O)O)ccc2OCCCc2ccc(OCCCCOc3ccccc3)cc2)CC1 and stop. 192 °C

Specify melting point for O=C(O)c1ccc(OCCCc2ccc(OCCCC3CCCCC3)cc2)c(C(=O)N2CCC(C(=O)O)CC2)c1 and stop. 183.4 to 184.5 °C

Specify melting point for O=C(O)c1ccc(OCCCc2ccc(OCCCCOc3ccccc3)cc2)c(C(=O)N2CCC(C(=O)O)CC2)c1 and stop. 142 to 143 °C

Specify melting point for O=C(O)c1ccc(OCCCc2ccc(OCCCCOc3ccccc3)cc2)c(C(=O)NC2CCCC(C(=O)O)C2)c1 (racemic) [Example 12] and stop. > 210 °C
